Record form. Attribute: pIC50. Fill in for each entry.
Assay Target: E. coli DNA gyrase (Escherichia coli, UniProt P0AES6)
Construct: purchased Inspiralis
Test Summary: DNA supercoiling assay (Inspiralis)
Format: biochemical
Test Settings: DNA supercoiling assay; read-out: E. coli DNA gyrase IC50
pIC50: −log10 of the molar value.

Task: Query: pIC50; subject: O=c1nc(SCc2cc(F)cc(C(F)(F)F)c2)nc(SCc2ccccc2F)[nH]1
Output: < 4.00

Task: Reported pIC50 for NS(=O)(=O)c1c(F)c(F)c(SCCO)c(F)c1NC1CCCCCCC1 : what is it?
Output: < 4.00

Task: Which pIC50 is listed for CC(C)Cc1cc(-c2nnsc2-c2ccccc2)c(O)cc1O ?
Output: < 4.00

Task: May I ask what pIC50 has been recorded for O=c1nc(SCc2cc(F)cc(C(F)(F)F)c2)nc(SCc2ccc(Cl)cc2)[nH]1 ?
Output: < 4.00

====

Assay Target: E. coli DNA gyrase (Escherichia coli, UniProt P0AES6)
Construct: purchased Inspiralis
Test Summary: DNA supercoiling assay (Inspiralis)
Type: biochemical
pIC50: −log10 of the molar value.
Recorded Metric: pIC50

Task: Requested read-out: pIC50. Entry: COc1ccc(-c2snnc2-c2cc(Cl)c(O)cc2O)cc1 [Compound 3]
Output: < 4.00

====

Assay Target: human DNA topoisomerase IIα (Homo sapiens, UniProt P11388)
Construct: purchased Inspiralis
Sequence (P11388 whole entry): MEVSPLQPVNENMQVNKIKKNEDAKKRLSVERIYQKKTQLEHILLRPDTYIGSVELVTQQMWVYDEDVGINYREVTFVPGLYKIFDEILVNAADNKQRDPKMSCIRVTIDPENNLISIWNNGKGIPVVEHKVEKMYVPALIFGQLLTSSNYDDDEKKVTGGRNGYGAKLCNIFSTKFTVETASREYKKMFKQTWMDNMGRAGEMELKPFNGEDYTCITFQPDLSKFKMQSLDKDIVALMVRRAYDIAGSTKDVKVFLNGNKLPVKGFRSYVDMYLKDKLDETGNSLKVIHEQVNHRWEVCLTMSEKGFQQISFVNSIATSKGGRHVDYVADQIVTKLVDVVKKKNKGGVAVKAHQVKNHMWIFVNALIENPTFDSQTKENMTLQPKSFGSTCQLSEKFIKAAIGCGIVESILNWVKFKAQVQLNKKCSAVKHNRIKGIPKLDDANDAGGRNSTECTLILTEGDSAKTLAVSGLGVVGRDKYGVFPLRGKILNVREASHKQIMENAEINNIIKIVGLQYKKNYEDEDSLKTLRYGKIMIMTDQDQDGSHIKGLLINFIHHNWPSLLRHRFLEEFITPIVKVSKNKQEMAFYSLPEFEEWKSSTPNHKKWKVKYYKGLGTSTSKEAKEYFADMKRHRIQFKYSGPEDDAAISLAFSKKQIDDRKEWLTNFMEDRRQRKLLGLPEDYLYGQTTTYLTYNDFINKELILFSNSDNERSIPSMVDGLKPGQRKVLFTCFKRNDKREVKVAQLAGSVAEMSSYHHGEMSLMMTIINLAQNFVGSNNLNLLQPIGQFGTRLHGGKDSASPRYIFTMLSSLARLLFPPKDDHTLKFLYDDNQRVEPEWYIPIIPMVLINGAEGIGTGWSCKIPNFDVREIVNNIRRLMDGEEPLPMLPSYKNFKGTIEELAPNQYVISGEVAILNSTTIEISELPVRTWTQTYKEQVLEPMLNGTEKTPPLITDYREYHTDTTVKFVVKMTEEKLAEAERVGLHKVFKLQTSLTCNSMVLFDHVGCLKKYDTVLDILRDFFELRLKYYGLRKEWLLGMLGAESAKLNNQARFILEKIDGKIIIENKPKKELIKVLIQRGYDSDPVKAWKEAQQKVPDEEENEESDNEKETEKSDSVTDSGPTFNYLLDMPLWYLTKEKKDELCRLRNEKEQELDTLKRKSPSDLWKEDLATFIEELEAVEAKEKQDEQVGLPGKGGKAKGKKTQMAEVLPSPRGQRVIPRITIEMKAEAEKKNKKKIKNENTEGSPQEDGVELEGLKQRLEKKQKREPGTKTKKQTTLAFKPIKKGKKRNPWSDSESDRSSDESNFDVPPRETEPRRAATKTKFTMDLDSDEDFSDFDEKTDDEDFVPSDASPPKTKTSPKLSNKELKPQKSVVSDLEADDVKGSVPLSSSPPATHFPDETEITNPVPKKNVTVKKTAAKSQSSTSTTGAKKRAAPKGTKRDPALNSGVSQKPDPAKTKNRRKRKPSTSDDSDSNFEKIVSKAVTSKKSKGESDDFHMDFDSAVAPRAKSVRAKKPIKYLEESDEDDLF
Test Summary: human DNA topoisomerase IIα DNA relaxation assay (Inspiralis)
Format: biochemical
Recorded Metric: activity at TopoII in vitro (in words)

NS(=O)(=O)c1c(F)c(F)c(SCCO)c(F)c1NC1CCCCCCC1; inactive
COc1ccc(-c2snnc2-c2cc(Cl)c(O)cc2O)cc1; no inhibition
CC(C)Cc1cc(-c2nnsc2-c2ccccc2)c(O)cc1O; no inhibition
Cc1[nH]c(C(=O)N[C@H]2CCc3nc(NC(=O)CC(=O)O)sc3C2)c(Br)c1Br; inactive

Proceeding to the next compound to report its activity at TopoII in vitro (in words).
Task: Test system human DNA topoisomerase IIα (Homo sapiens, UniProt P11388); read-out activity at TopoII in vitro (in words); what value for O=C(O)C(=O)Nc1ccc2nc(NC(=O)c3cc(Cl)c(Cl)[nH]3)sc2c1 ?
Output: inactive
